Target: Acetylcholinesterase (Homo sapiens, UniProt P22303)
Sequence (P22303 whole entry): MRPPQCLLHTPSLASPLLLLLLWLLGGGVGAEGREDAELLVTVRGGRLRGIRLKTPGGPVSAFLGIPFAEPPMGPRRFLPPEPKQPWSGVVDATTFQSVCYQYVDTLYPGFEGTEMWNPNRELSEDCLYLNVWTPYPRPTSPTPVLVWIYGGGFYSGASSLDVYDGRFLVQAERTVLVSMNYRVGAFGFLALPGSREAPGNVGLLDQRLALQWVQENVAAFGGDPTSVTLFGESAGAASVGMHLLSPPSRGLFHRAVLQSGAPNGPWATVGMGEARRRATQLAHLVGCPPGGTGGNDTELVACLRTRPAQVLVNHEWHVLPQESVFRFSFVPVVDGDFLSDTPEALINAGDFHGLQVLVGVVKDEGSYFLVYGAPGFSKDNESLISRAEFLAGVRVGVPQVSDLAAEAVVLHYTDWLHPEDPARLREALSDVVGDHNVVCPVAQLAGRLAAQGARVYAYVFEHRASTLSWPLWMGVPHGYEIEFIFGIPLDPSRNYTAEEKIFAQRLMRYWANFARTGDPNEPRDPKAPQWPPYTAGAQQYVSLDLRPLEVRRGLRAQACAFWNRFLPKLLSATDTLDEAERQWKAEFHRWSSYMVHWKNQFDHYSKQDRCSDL
Assay: Inhibition of recombinant human AChE using acetylthiocholine iodide as substrate by Ellman's method
metric_name: pIC50
# pIC50 is unitless: minus log10 of the molar concentration; print number only

pIC50 for CCN(CCCCCn1c(C)cc(=O)n(CCCCCN(CC)Cc2ccccc2C#N)c1=O)Cc1ccccc1C#N ? 5.14

Same question for CN(CCCOc1ccc([N+](=O)[O-])cc1)C(=O)c1cnc(N2CCN(c3ccc(C(=O)N4CCOCC4)cc3[N+](=O)[O-])CC2)nc1 please. 6.05

Please answer likewise for CCN(CCCCCn1c(C)cc(=O)n(CCCCCN(CC)Cc2cccc(C(=O)OC)c2)c1=O)Cc1cccc(C(=O)OC)c1 6.54
